experiment: physchem; conditions: pH 7.4
readout.label: chromatographic logD

[[record]]
smiles_repr = "O=C(/C=C/c1ccccc1)Nc1cc(Cl)ccc1F"
value = 0.433

[[record]]
smiles_repr = "O=C(/C=C/c1ccccc1)Nc1c(Br)cc(F)c(Cl)c1Br"
value = 0.392

[[record]]
smiles_repr = "O=C(/C=C/c1ccccc1)Nc1ccc(F)cc1C(F)(F)F"
value = 0.243

[[record]]
smiles_repr = "O=C(/C=C/c1ccccc1)Nc1ccc(Br)cc1C(F)(F)F"
value = 0.532

[[record]]
smiles_repr = "O=C(/C=C/c1ccccc1)Nc1ccc(Cl)cc1Cl"
value = 0.589


###

test: physchem; details: pH 7.4
readout.label: chromatographic logD

[[record]]
smiles_repr = "O=C(/C=C/c1ccccc1)Nc1ccc(Br)c(F)c1"
value = 0.56

[[record]]
smiles_repr = "O=C(/C=C/c1ccccc1)Nc1cc(F)c(F)c(F)c1"
value = 0.549

[[record]]
smiles_repr = "O=C(/C=C/c1ccccc1)Nc1cc(Cl)c(Cl)c(Cl)c1"
value = 1.01

[[record]]
smiles_repr = "O=C(/C=C/c1ccccc1)Nc1c(F)cc(F)cc1F"
value = 0.026

[[record]]
smiles_repr = "O=C(/C=C/c1ccccc1)Nc1cc(C(F)(F)F)ccc1Br"
value = 0.616


###

assay: physchem; details: pH 6.5
Label Fulfilled when chromatographic logD is strictly below 0.5; otherwise label Not fulfilled.

[[record]]
compound = "O=C(/C=C/c1ccccc1)Nc1ccc(Cl)cc1C(F)(F)F [Compound 15]"
cat = "Fulfilled"

[[record]]
compound = "O=C(/C=C/c1ccccc1)Nc1ccc(Br)cc1Br [Compound 7]"
cat = "Not fulfilled"

[[record]]
compound = "O=C(/C=C/c1ccccc1)Nc1ccc([N+](=O)[O-])cc1C(F)(F)F [Compound 17]"
cat = "Fulfilled"

[[record]]
compound = "O=C(/C=C/c1ccccc1)Nc1ccc(Br)c(Cl)c1 [Compound 11]"
cat = "Not fulfilled"

[[record]]
compound = "O=C(/C=C/c1ccccc1)Nc1cc(Cl)c(Cl)cc1Cl [Compound 5]"
cat = "Not fulfilled"

[[record]]
compound = "O=C(/C=C/c1ccccc1)Nc1cc(Cl)c(Cl)c(Cl)c1 [Compound 6]"
cat = "Not fulfilled"

[[record]]
compound = "O=C(/C=C/c1ccccc1)Nc1ccc(Cl)cc1Cl [Compound 4]"
cat = "Not fulfilled"

[[record]]
compound = "O=C(/C=C/c1ccccc1)Nc1ccc(C(F)(F)F)c(F)c1 [Compound 10]"
cat = "Not fulfilled"

[[record]]
compound = "O=C(/C=C/c1ccccc1)Nc1c(Br)cc(C(F)(F)F)cc1Br [Compound 19]"
cat = "Fulfilled"

[[record]]
compound = "O=C(/C=C/c1ccccc1)Nc1c(F)cc(F)cc1F [Compound 2]"
cat = "Fulfilled"

[[record]]
compound = "O=C(/C=C/c1ccccc1)Nc1ccc(Cl)cc1Br [Compound 12]"
cat = "Not fulfilled"

[[record]]
compound = "O=C(/C=C/c1ccccc1)Nc1c(Br)cc(F)c(Cl)c1Br [Compound 20]"
cat = "Fulfilled"

[[record]]
compound = "O=C(/C=C/c1ccccc1)Nc1cc(Cl)ccc1F [Compound 8]"
cat = "Fulfilled"

[[record]]
compound = "O=C(/C=C/c1ccccc1)Nc1cc(F)c(F)c(F)c1 [Compound 3]"
cat = "Not fulfilled"

[[record]]
compound = "O=C(/C=C/c1ccccc1)Nc1ccc(F)cc1C(F)(F)F [Compound 14]"
cat = "Fulfilled"

[[record]]
compound = "O=C(/C=C/c1ccccc1)Nc1ccc(Br)c(F)c1 [Compound 9]"
cat = "Not fulfilled"

[[record]]
compound = "O=C(/C=C/c1ccccc1)Nc1cc(C(F)(F)F)ccc1Br [Compound 13]"
cat = "Not fulfilled"


###

experiment: Lipophilicity determination by RP-TLC; assay type: physicochemical; design: key: RM = log(1/RF - 1), from RP-18 TLC; details: 72:28 MeOH:H2O
# reported RM (MeOH:H2O); entries follow
readout.label: RM (MeOH:H2O)

[[record]]
smiles_repr = "O=C(/C=C/c1ccccc1)Nc1cc(Cl)c(Cl)c(Cl)c1"
readout_label = "RM (MeOH:H2O)"
value = 1.0852

[[record]]
smiles_repr = "O=C(/C=C/c1ccccc1)Nc1ccc(F)cc1C(F)(F)F"
readout_label = "RM (MeOH:H2O)"
value = 0.3011

[[record]]
smiles_repr = "O=C(/C=C/c1ccccc1)Nc1cc(Cl)ccc1F"
readout_label = "RM (MeOH:H2O)"
value = 0.5411

[[record]]
smiles_repr = "O=C(/C=C/c1ccccc1)Nc1ccc(Br)c(Cl)c1"
readout_label = "RM (MeOH:H2O)"
value = 0.8388

[[record]]
smiles_repr = "O=C(/C=C/c1ccccc1)Nc1ccc([N+](=O)[O-])c(C(F)(F)F)c1"
readout_label = "RM (MeOH:H2O)"
value = 0.6927

[[record]]
smiles_repr = "O=C(/C=C/c1ccccc1)Nc1cc(Cl)c(Cl)cc1Cl"
readout_label = "RM (MeOH:H2O)"
value = 0.9695

[[record]]
smiles_repr = "O=C(/C=C/c1ccccc1)Nc1ccc(Br)cc1Br"
readout_label = "RM (MeOH:H2O)"
value = 0.7331

[[record]]
smiles_repr = "O=C(/C=C/c1ccccc1)Nc1c(Br)cc(F)c(Cl)c1Br"
readout_label = "RM (MeOH:H2O)"
value = 0.4320

[[record]]
smiles_repr = "O=C(/C=C/c1ccccc1)Nc1ccc(Cl)cc1Br"
readout_label = "RM (MeOH:H2O)"
value = 0.6553

[[record]]
smiles_repr = "O=C(/C=C/c1ccccc1)Nc1ccc(Cl)cc1Cl"
readout_label = "RM (MeOH:H2O)"
value = 0.6546


###

assay: Lipophilicity determination by RP-TLC; format: physicochemical; parameters: key: RM = log(1/RF - 1), from RP-18 TLC; details: 72:28 MeOH:H2O
readout.label: RM (MeOH:H2O)

[[record]]
smiles_repr = "O=C(/C=C/c1ccccc1)Nc1cc(F)c(F)c(F)c1"
readout_label = "RM (MeOH:H2O)"
value = 0.6074

[[record]]
smiles_repr = "O=C(/C=C/c1ccccc1)Nc1ccc([N+](=O)[O-])cc1C(F)(F)F"
readout_label = "RM (MeOH:H2O)"
value = 0.4998

[[record]]
smiles_repr = "O=C(/C=C/c1ccccc1)Nc1ccc(Br)cc1C(F)(F)F"
readout_label = "RM (MeOH:H2O)"
value = 0.5730

[[record]]
smiles_repr = "O=C(/C=C/c1ccccc1)Nc1c(Br)cc(C(F)(F)F)cc1Br"
readout_label = "RM (MeOH:H2O)"
value = 0.5301

[[record]]
smiles_repr = "O=C(/C=C/c1ccccc1)Nc1ccc(Cl)cc1C(F)(F)F"
readout_label = "RM (MeOH:H2O)"
value = 0.5305


###

# reported MIC; entries follow
test system: methicillin-resistant Staphylococcus aureus (MRSA) SA 630; test: In vitro antibacterial evaluation, broth microdilution MIC, MRSA isolate SA 630; format: cell-based; conditions: clinical isolate MRSA SA 630
readout.label: MIC

[[record]]
compound = "O=C(/C=C/c1ccccc1)Nc1c(Br)cc(F)c(Cl)c1Br"
value = "> 595 µM"

[[record]]
compound = "O=C(/C=C/c1ccccc1)Nc1ccc([N+](=O)[O-])cc1C(F)(F)F"
value = "> 762 µM"

[[record]]
compound = "O=C(/C=C/c1ccccc1)Nc1ccc(Cl)cc1C(F)(F)F"
value = "> 788 µM"

[[record]]
compound = "O=C(/C=C/c1ccccc1)Nc1c(Br)cc(C(F)(F)F)cc1Br"
value = "> 574 µM"

[[record]]
compound = "O=C(/C=C/c1ccccc1)Nc1c(F)cc(F)cc1F"
value = "> 924 µM"

[[record]]
compound = "O=C(/C=C/c1ccccc1)Nc1cc(Cl)c(Cl)cc1Cl"
value = "> 790 µM"

[[record]]
compound = "O=C(/C=C/c1ccccc1)Nc1cc(F)c(F)c(F)c1"
value = "> 924 µM"

[[record]]
compound = "O=C(/C=C/c1ccccc1)Nc1ccc(Cl)cc1Br"
value = "> 766 µM"

[[record]]
compound = "O=C(/C=C/c1ccccc1)Nc1cc(C(F)(F)F)ccc1Br"
value = "> 696 µM"

[[record]]
compound = "O=C(/C=C/c1ccccc1)Nc1ccc(F)cc1C(F)(F)F"
value = "> 828 µM"

[[record]]
compound = "O=C(/C=C/c1ccccc1)Nc1ccc(Cl)cc1Cl"
value = "> 880 µM"

[[record]]
compound = "O=C(/C=C/c1ccccc1)Nc1cc(Cl)ccc1F"
value = "> 931 µM"

[[record]]
compound = "O=C(/C=C/c1ccccc1)Nc1cc(Cl)c(Cl)c(Cl)c1"
value = "> 790 µM"

[[record]]
compound = "O=C(/C=C/c1ccccc1)Nc1ccc(Br)cc1Br"
value = "> 677 µM"

[[record]]
compound = "O=C(/C=C/c1ccccc1)Nc1ccc(Br)cc1C(F)(F)F"
value = "> 696 µM"

[[record]]
compound = "CC1(C)S[C@@H]2[C@H](NC(=O)[C@H](N)c3ccccc3)C(=O)N2[C@H]1C(=O)O [AMP, ampicillin, reference compound]"
value = "45.8 µM"

[[record]]
compound = "O=C(/C=C/c1ccccc1)Nc1ccc([N+](=O)[O-])c(C(F)(F)F)c1"
value = "> 762 µM"

[[record]]
compound = "O=C(/C=C/c1ccccc1)Nc1ccc(Br)c(Cl)c1"
value = "192 µM"

[[record]]
compound = "O=C(/C=C/c1ccccc1)Nc1ccc(C(F)(F)F)c(F)c1"
value = "12.9 µM"

[[record]]
compound = "O=C(/C=C/c1ccccc1)Nc1ccc(Br)c(F)c1"
value = "805 µM"

